# tested.on: EGFR T790M (Homo sapiens, UniProt P00533, T790M)
# Sequence (P00533 25-1210 T790M): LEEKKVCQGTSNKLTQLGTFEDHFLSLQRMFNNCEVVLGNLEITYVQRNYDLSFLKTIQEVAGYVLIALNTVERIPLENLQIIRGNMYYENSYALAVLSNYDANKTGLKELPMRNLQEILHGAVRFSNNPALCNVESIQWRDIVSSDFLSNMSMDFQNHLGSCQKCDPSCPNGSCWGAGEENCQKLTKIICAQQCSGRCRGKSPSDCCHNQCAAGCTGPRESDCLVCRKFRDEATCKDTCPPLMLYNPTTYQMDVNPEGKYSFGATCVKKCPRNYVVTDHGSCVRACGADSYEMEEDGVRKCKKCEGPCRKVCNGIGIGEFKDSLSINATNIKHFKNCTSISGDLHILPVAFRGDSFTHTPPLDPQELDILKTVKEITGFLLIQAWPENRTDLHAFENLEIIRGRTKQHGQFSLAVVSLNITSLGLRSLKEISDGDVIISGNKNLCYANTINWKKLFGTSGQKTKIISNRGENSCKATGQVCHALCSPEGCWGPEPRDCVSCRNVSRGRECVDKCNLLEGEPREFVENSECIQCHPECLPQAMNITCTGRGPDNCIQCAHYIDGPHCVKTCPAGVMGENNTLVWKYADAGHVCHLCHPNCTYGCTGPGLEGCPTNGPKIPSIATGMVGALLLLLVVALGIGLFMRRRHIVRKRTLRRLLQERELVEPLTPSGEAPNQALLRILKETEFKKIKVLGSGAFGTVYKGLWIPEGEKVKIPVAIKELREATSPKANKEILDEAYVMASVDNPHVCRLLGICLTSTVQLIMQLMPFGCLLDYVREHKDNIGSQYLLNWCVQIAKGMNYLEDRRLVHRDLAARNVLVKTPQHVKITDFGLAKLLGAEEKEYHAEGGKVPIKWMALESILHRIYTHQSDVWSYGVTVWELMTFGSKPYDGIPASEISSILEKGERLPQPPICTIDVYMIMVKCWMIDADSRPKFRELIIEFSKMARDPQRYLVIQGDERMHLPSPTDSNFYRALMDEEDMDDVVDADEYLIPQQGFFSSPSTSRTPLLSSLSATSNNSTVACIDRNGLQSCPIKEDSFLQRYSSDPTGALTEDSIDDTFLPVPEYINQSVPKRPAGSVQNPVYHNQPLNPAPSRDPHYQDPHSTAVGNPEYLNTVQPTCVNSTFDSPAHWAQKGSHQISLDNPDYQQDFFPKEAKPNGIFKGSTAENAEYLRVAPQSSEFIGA
# assay: EGFR enzyme assay
# measurement.setup: T790M mutant
pIC50: −log10 of the molar value.

- smi: "C=CC(=O)Nc1cc(Nc2nc(-c3cn(C)c4ccc(C)cc34)c3sccc3n2)c(OC)cc1N(C)CCN(C)C"
  pIC50: "> 7.00"
- smi: "C=CC(=O)Nc1cc(Nc2nc(-c3cn(C)c4cc(OC)ccc34)c3sccc3n2)c(OC)cc1N(C)CCN(C)C"
  pIC50: "5.00 to 7.00"
- smi: "C=CC(=O)Nc1cc(Nc2nc(-c3cn(CC)c4ccccc34)c3sccc3n2)c(OC)cc1N(C)CCN(C)C"
  pIC50: "> 7.00"
- smi: "C=CC(=O)Nc1cc(Nc2nc(-c3cn(C)c4cc(C)ccc34)c3sccc3n2)c(OC)cc1N(C)CCN(C)C"
  pIC50: "> 7.00"

###

# tested.on: EGFR T790M (Homo sapiens, UniProt P00533, T790M)
# assay: EGFR enzyme assay
# measurement.setup: T790M mutant
Measured IC50, listed per entry.

- compound: "C=CC(=O)Nc1cc(Nc2nc(-c3cn(C)c4ccccc34)c3sccc3n2)c(OC)cc1N(C)CCN(C)C [Compound 1]"
  IC50: "< 100 nM"
- compound: "C=CC(=O)Nc1cc(Nc2nc(-c3cn(C)c4ccc(OC)cc34)c3sccc3n2)c(OC)cc1N(C)CCN(C)C [Compound 6]"
  IC50: "< 100 nM"
- compound: "C=CC(=O)Nc1cc(Nc2nc(-c3cn(C(C)C)c4ccccc34)c3sccc3n2)c(OC)cc1N(C)CCN(C)C [Compound 3]"
  IC50: "< 100 nM"
- compound: "C=CC(=O)Nc1cc(Nc2nc(-c3cn(C(C)(C)C)c4ccccc34)c3sccc3n2)c(OC)cc1N(C)CCN(C)C [Compound 4]"
  IC50: "100 to 10000 nM"
